Test system: Staphylococcus sp.
Experiment: in vitro antibacterial evaluation, MIC by broth dilution
Format: cell-based
Details: strain GC 4551; broth dilution, 18 hours at 35° C.
Property: MIC Coagulase Negative Staphylococcus (GC 4551) (µg/mL)
Numeric only. Scale: µg/mL

# annotated cases, reported MIC Coagulase Negative Staphylococcus (GC 4551) shown
>  <Compound>
CC(c1ccccc1)C1NC(=O)CNC(=O)C(CO)NC(=O)C(C(O)C2CNC(=N)N2C2OC(CO)C(O)C(O)C2O)NC(=O)C(C(O)C2CNC(=N)N2)NC(=O)C(Cc2ccc(OC3OC(CO)C(OC4OC5COC(c6ccc(-c7ccc(Cl)cc7)cc6)OC5C(O)C4O)C(O)C3O)cc2)NC1=O (centres unmarked)

>  <Data value>
4

$$$$
>  <Compound>
CC(c1ccccc1)C1NC(=O)CNC(=O)C(CO)NC(=O)C(C(O)C2CNC(=N)N2C2OC(CO)C(O)C(O)C2O)NC(=O)C(C(O)C2CNC(=N)N2)NC(=O)C(Cc2ccc3oc(-c4cccc(F)c4)nc3c2)NC1=O (centres unmarked)

>  <Data value>
8

$$$$
>  <Compound>
CC(c1ccccc1)C1NC(=O)CNC(=O)C(CO)NC(=O)C(C(O)C2CNC(=N)N2C2OC(CO)C(O)C(O)C2O)NC(=O)C(C(O)C2CNC(=N)N2)NC(=O)C(Cc2ccc3oc(-c4ccoc4)nc3c2)NC1=O (centres unmarked)

>  <Data value>
64

$$$$

Could you now look at the following compound, please?
Entry under test: CC(c1ccccc1)C1NC(=O)CNC(=O)C(CO)NC(=O)C(C(O)C2CNC(=N)N2C2OC(CO)C(O)C(O)C2O)NC(=O)C(C(O)C2CNC(=N)N2)NC(=O)C(Cc2ccc(OC3OC(CO)C(OC4OC5COC6(CCSCC6)OC5C(O)C4O)C(O)C3O)cc2)NC1=O (centres unmarked) . Its MIC Coagulase Negative Staphylococcus (GC 4551) was 8

---

Test system: Enterococcus sp.
Test: in vitro antibacterial evaluation, MIC by broth dilution
Type: cell-based
Conditions: strain GC 3059; broth dilution, 18 hours at 35° C.
Property: MIC Enterococcus faecalis (GC 3059) (µg/mL)
Provide the reading as a plain figure in µg/mL.

Form: compound = CC(c1ccccc1)C1NC(=O)CNC(=O)C(CO)NC(=O)C(C(O)C2CNC(=N)N2C2OC(CO)C(O)C(O)C2O)NC(=O)C(C(O)C2CNC(=N)N2)NC(=O)C(Cc2ccc3oc(-c4cccc([N+](=O)[O-])c4)nc3c2)NC1=O (centres unmarked) ; MIC Enterococcus faecalis (GC 3059) = 64

---

Test system: Enterococcus sp.
Test: in vitro antibacterial evaluation, MIC by broth dilution
Format: cell-based
Details: broth dilution, 18 hours at 35° C.
Property: MIC Enterococcus faecalis (GC 4554) (µg/mL)
Field format: number, assumed µg/mL, no unit text.

Value of MIC Enterococcus faecalis (GC 4554) reported for the molecule CC(c1ccccc1)C1NC(=O)CNC(=O)C(CO)NC(=O)C(C(O)C2CNC(=N)N2C2OC(CO)C(O)C(O)C2O)NC(=O)C(C(O)C2CNC(=N)N2)NC(=O)C(Cc2ccc(OC3OC(CO)C(OC4OC(CO)C(O)C(OCc5ccc(OCc6ccccc6)cc5)C4O)C(O)C3O)cc2)NC1=O (centres unmarked) [Example 231c] is 4

---

Test system: Enterococcus sp.
Assay: in vitro antibacterial evaluation, MIC by broth dilution
Type: cell-based
Conditions: broth dilution, inoculum 5×10^5 CFU/mL, 18 hours at 35° C.; strain GC 6189
Measured MIC Enterococcus faecalis (GC 6189) of individual entries

>  <Compound>
CC(c1ccccc1)C1NC(=O)CNC(=O)C(CO)NC(=O)C(C(O)C2CNC(=N)N2C2OC(CO)C(O)C(O)C2O)NC(=O)C(C(O)C2CNC(=N)N2)NC(=O)C(Cc2ccc(OC3OC(CO)C(OC4OC5COC6(CC7CCC6(C)C7(C)C)OC5C(O)C4O)C(O)C3O)cc2)NC1=O (centres unmarked) [Example 215]

>  <MIC Enterococcus faecalis (GC 6189)>
1 µg/mL

$$$$
>  <Compound>
CC(C)=CCOc1cccc(C2OCC3OC(OC4C(CO)OC(Oc5ccc(CC6NC(=O)C(C(C)c7ccccc7)NC(=O)CNC(=O)C(CO)NC(=O)C(C(O)C7CNC(=N)N7C7OC(CO)C(O)C(O)C7O)NC(=O)C(C(O)C7CNC(=N)N7)NC6=O)cc5)C(O)C4O)C(O)C(O)C3O2)c1 (centres unmarked) [Example 165]

>  <MIC Enterococcus faecalis (GC 6189)>
16 µg/mL

$$$$
>  <Compound>
CC(c1ccc(Cl)cc1)C1NC(=O)CNC(=O)C(CO)NC(=O)C(C(O)C2CNC(=N)N2C2OC(CO)C(O)C(O)C2O)NC(=O)C(C(O)C2CNC(=N)N2)NC(=O)C(Cc2ccc(OC3OC(CO)C(OC4OC5COC(c6ccccc6)OC5C(O)C4O)C(O)C3O)cc2)NC1=O (centres unmarked) [Example 195]

>  <MIC Enterococcus faecalis (GC 6189)>
0.5 µg/mL

$$$$

Simply: CC(c1ccccc1)C1NC(=O)CNC(=O)C(CO)NC(=O)C(C(O)C2CNC(=N)N2C2OC(CO)C(O)C(O)C2O)NC(=O)C(C(O)C2CNC(=N)N2)NC(=O)C(Cc2ccc(OC3OC(CO)C(OC4OC5COC(C)(c6ccc(F)cc6)OC5C(O)C4O)C(O)C3O)cc2)NC1=O (centres unmarked) [Example 216] , Enterococcus sp., MIC Enterococcus faecalis (GC 6189) = 4 µg/mL

Measured on Enterococcus sp., CC(c1ccccc1)C1NC(=O)CNC(=O)C(CO)NC(=O)C(C(O)C2CNC(=N)N2C2OC(CO)C(O)C(O)C2O)NC(=O)C(C(O)C2CNC(=N)N2)NC(=O)C(Cc2ccc(OC3OC(CO)C(OC4OC(CO)C(O)C(O)C4OCc4ccc(OCc5ccccc5)cc4)C(O)C3O)cc2)NC1=O (centres unmarked) [Example 231b] has a documented MIC Enterococcus faecalis (GC 6189) of 8 to 64 µg/mL

Observed MIC Enterococcus faecalis (GC 6189) on Enterococcus sp., entry CC(c1ccccc1)C1NC(=O)CNC(=O)C(CO)NC(=O)C(C(O)C2CNC(=N)N2C2OC(CO)C(O)C(O)C2O)NC(=O)C(C(O)C2CNC(=N)N2)NC(=O)C(Cc2ccc(OC3OC(CO)C(OC4OC5COC(c6cccc(Oc7ccccc7)c6)OC5C(O)C4O)C(O)C3O)cc2)NC1=O (centres unmarked) [Example 170] , equals 4 µg/mL

Record for CC(C)CC(=O)OC1C(O)C(OC2C(CO)OC(Oc3ccc(CC4NC(=O)C(C(C)c5ccccc5)NC(=O)CNC(=O)C(CO)NC(=O)C(C(O)C5CNC(=N)N5C5OC(CO)C(O)C(O)C5O)NC(=O)C(C(O)C5CNC(=N)N5)NC4=O)cc3)C(O)C2O)OC2COC3(OC21)C1CC2CC(C1)CC3C2 (centres unmarked) [Example 218] under target or system Enterococcus sp.: MIC Enterococcus faecalis (GC 6189) reported as 4 µg/mL
